This section presents binders with their documented pIC50 values.
target: RBDSARS-CoV (SARS-CoV S protein residues 318-510, C-terminal His-tag) (SARS-CoV, UniProt P59594 318-510); test: ELISA
pIC50: −log10 of the molar value.

Solved entries:
Binder	pIC50
5p-82 (VHH) VHH: HVQLVESGGGLVQAGESLRLSCVDSKRTGSRWPMGWFRQAPGKEREFVASISWTGSRTYYADSVKGRFTISRDNAENTVFLQMNSLKPEDTAVYYCAAAHARVYGANWSSSNRNDYDAWGQGTQVTVSS	7.00 to 8.00
5p-40 (VHH) VHH: DVQLVESGGGLVQPGDSLRLSCVASGLTFSRYTMAWFRQAPGKDRIFVAAVSKPGGSTYYADSVKGRFTISRDNAQNTVYLQMNSLKPDDTAVYSCAAGLTVLLTANPAHYNYWGQGTQVTVSS	> 8.00

Next binder, pIC50 to be filled in.
(Q) For 5p-175 (VHH) VHH: QVQLVESGGGLVQAGGSLRLSCAASGRTFSTYAMAWFRQAPGKEREFVAGVARSADTTYYGDSVKGRFTISRDNAKNEVNLQMSSLKPEDTAVYYCAARSVIQYSIVPGNDFHYEYWGQGTQVTVSS , write its pIC50.
(A) > 8.00
